Run description: Probe fluorescence ratio response to arachidonic acid relative to ADIFAB2
Format: binding
Assay setup: arachidonic acid; response relative to ADIFAB2
Assay metric: DR/DR AA

IN: # query: DR/DR AA of entry 38E1, 72A (protein, listed as Rattus norvegicus, PEPTIDE (1)...(131) wild-type rat intestinal fatty acid binding protein) AFDGTWKVDRNENYEKFMEKMGINVVKRKLGAHDNLKETITQEGNKFTVKESSNFRNIDVVFELGVDFAYSAADGTELTGTWTMEGNKLVGKFKRVDNGKELIAVREISGNELIQTYTYEGVEAKRIFKKE
OUT: 0.57

IN: GET /values?readout=DR/DR AA&item= 14V 18L 73V 117A 72A (protein, listed as Rattus norvegicus, PEPTIDE (1)...(131) wild-type rat intestinal fatty acid binding protein) AFDGTWKVDRNENVEKFLEKMGINVVKRKLGAHDNLKLTITQEGNKFTVKESSNFRNIDVVFELGVDFAYSAVDGTELTGTWTMEGNKLVGKFKRVDNGKELIAVREISGNELIQTATYEGVEAKRIFKKE
OUT: 0.926

IN: Consider the molecule shown here: 72V 73W 74N (protein, listed as Rattus norvegicus, PEPTIDE (1)...(131) wild-type rat intestinal fatty acid binding protein) AFDGTWKVDRNENYEKFMEKMGINVVKRKLGAHDNLKLTITQEGNKFTVKESSNFRNIDVVFELGVDFAYSVWNGTELTGTWTMEGNKLVGKFKRVDNGKELIAVREISGNELIQTYTYEGVEAKRIFKKE What is its recorded DR/DR AA?
OUT: 1.191

IN: Give its DR/DR AA value. Item: 119F, 72A (protein, listed as Rattus norvegicus, PEPTIDE (1)...(131) wild-type rat intestinal fatty acid binding protein) AFDGTWKVDRNENYEKFMEKMGINVVKRKLGAHDNLKLTITQEGNKFTVKESSNFRNIDVVFELGVDFAYSAADGTELTGTWTMEGNKLVGKFKRVDNGKELIAVREISGNELIQTYTFEGVEAKRIFKKE
OUT: 0.93

IN: So what's the measured DR/DR AA for this one? 31N2, 72A (protein, listed as Rattus norvegicus, PEPTIDE (1)...(131) wild-type rat intestinal fatty acid binding protein) AFDGTWKVDRNENYEKFMEKMGINVVKRKLNAHDNLKLTITQEGNKFTVKESSNFRNIDVVFELGVDFAYSAADGTELTGTWTMEGNKLVGKFKRVDNGKELIAVREISGNELIQTYTYEGVEAKRIFKKE
OUT: 0.88

IN: Given 21W 78I 72A (protein, listed as Rattus norvegicus, PEPTIDE (1)...(131) wild-type rat intestinal fatty acid binding protein) AFDGTWKVDRNENYEKFMEKWGINVVKRKLGAHDNLKLTITQEGNKFTVKESSNFRNIDVVFELGVDFAYSAADGTEITGTWTMEGNKLVGKFKRVDNGKELIAVREISGNELIQTYTYEGVEAKRIFKKE , state its recorded DR/DR AA.
OUT: 6.322
